Tested on: rotarod performance (motor co-ordination)
experimental-details: Motor co-ordination and behaviour, accelerating rotarod
assay-context: accelerating rotarod 1 h after drug; route given per compound
measured-property: ID50 Motor Impairment Rat Rotarod (mg/kg)
One number for each entry, in mg/kg.

Use the examples below as a reference point.
query-smiles	ID50 Motor Impairment Rat Rotarod (mg/kg)
C[C@]12N[C@H](Cc3ccccc31)c1ccccc12	0.22
O=c1[nH]c2cc(Cl)ccc2c(O)c1-c1cccc(Oc2ccccc2)c1	1.9

[in] Item `NCC1(CC(=O)O)CCCCC1` : provide ID50 Motor Impairment Rat Rotarod
[out] 133

###

Tested on: rotarod performance (motor co-ordination)
experimental-details: Motor co-ordination and behaviour, accelerating rotarod
assay-context: accelerating rotarod 1 h after drug; route given per compound
measured-property: ID50 Motor Impairment Rat Rotarod

[in] Supply ID50 Motor Impairment Rat Rotarod value. Item: `Nc1nnc(-c2cccc(Cl)c2Cl)c(N)n1`
[out] >500 mg/kg
